Known B*0702 binding (HIV B07 Super Motif Peptides with Binding Information) of a selection of sequences
Tested target: HLA-B*0702 (Homo sapiens, UniProt P01889)
Construct: endogenous in cells; host or cells: GM3107
Test name: purified HLA class I binding assay, B*0702
Measurement context: purified HLA-B*0702; binding value without unit
Measured endpoint: B*0702 binding (HIV B07 Super Motif Peptides with Binding Information)

[
  {
    "Sequence input": "DPEIVMIISF",
    "Value observed": 0.0001
  },
  {
    "Sequence input": "KPCVKLTPLC",
    "Value observed": 0.0004
  },
  {
    "Sequence input": "GPAATLEEMM",
    "Value observed": 0.0020
  },
  {
    "Sequence input": "VPVWKEATTT",
    "Value observed": 0.0022
  },
  {
    "Sequence input": "IIPVIIAGPIA",
    "Value observed": 0.0590
  },
  {
    "Sequence input": "EPFREYVIIRF",
    "Value observed": 0.0001
  },
  {
    "Sequence input": "VPIDPNPQEV",
    "Value observed": 0.0008
  },
  {
    "Sequence input": "GPGIIKARV",
    "Value observed": 0.0002
  },
  {
    "Sequence input": "IPMFSALSIEGA",
    "Value observed": 0.0004
  },
  {
    "Sequence input": "EPIPIIIYCA",
    "Value observed": 0.0001
  },
  {
    "Sequence input": "EPVIIGVYY",
    "Value observed": 0.0001
  },
  {
    "Sequence input": "EPFRDYVDRP",
    "Value observed": 0.00012
  },
  {
    "Sequence input": "IPIIIYCAPA",
    "Value observed": 0.0130
  },
  {
    "Sequence input": "HPVIIAGPI",
    "Value observed": 0.0012
  },
  {
    "Sequence input": "GPGIIKARVLA",
    "Value observed": 0.0002
  },
  {
    "Sequence input": "APTKAKRRVV",
    "Value observed": 0.1200
  },
  {
    "Sequence input": "SPRTLNAWYK",
    "Value observed": 0.0076
  },
  {
    "Sequence input": "IPVGEIYKRW",
    "Value observed": 0.0002
  }
]
